system: RXF 393; test: NCI tumour cell line growth inhibition, 48 h
Activity calls are given as the source filed them. Cut-off read from the data, not from the text of the source: active = GI50 up to about 1.1 µM and inactive = higher.
recorded_endpoint: GI50

Look at this molecule and give its reported GI50. CCC(C#N)NCc1ccc(CNC(C#N)CC)cc1 (stereo unspecified)
> 100 µM (inactive)

Entry `CCOc1ccccc1/N=C\c1c2ccccc2cc2ccccc12` : reported GI50 = ?
15.7 µM (inactive)

What value of GI50 has been recorded for this entry: CCCNC1=Nc2ccccc2NC(C)C1 (stereo unspecified)
> 100 µM (inactive)

For `O=C(C(Cl)Cl)N(O)c1ccccc1OCc1ccccc1` , what is its reported GI50?
86.3 µM (inactive)

Please look up its GI50: `N=c1n(C(=O)N2CCCC2)c2cc(Cl)ccc2n1C1=NCCN1`
82.4 µM (inactive)

State the recorded GI50 for this entry: OC1(c2ccc(Cl)cc2)c2ccc3ccccc3c2C2=N[C@H]3CCCC[C@@H]3N21 (stereo partly specified)
3.5 µM (inactive)

* * *

system: IGROV-1; test: NCI tumour cell line growth inhibition, 48 h
Active and inactive are the calls of the source. Cut-off read from the data, not from the text of the source: active = GI50 up to about 1.1 µM and inactive = higher.
recorded_endpoint: GI50

Requested read-out: GI50. Entry: CC1(c2cccc(N)c2)C2C(=O)NC(=O)C1C(=O)NC2=O (stereo not given)
44.3 µM (inactive)

Given the entry `C/C(CN1C(=O)c2ccccc2C1=O)=N\NS(=O)(=O)c1cccc([N+](=O)[O-])c1` , report its measured GI50.
> 100 µM (inactive)

Name the reported GI50 value associated with the compound N#CC(C(=O)Nc1ccccc1)C1=C(Cl)C(=O)c2ccccc2C1=O (stereo not given)
17.9 µM (inactive)

Reported GI50 for N=C1NC(=O)N2CC12 (stereo not given) [IMEXON] : what is it?
> 100 µM (inactive)

Which GI50 value is on record for Cc1nn(C(=O)c2ccc(Cl)cc2)c2c1C(c1ccccc1O)SC(=N)N2 (stereo not given) ?
> 10 µM (inactive)

Need GI50 of CC1C(=O)OCC2=CCN3CCC(OC(=O)C(C)C1(C)O)C23 (stereo not given) , thanks.
> 100 µM (inactive)

Return reported GI50; argument: COC(=O)[C@H](Cc1ccccc1)NP(=O)(O)OCC1OC(n2cc(C)c(=O)[nH]c2=O)CC1N=[N+]=[N-] (stereo not given in full)
> 100 µM (inactive)

Fill in: GI50 of `Cn1ncc2ccc3[nH]c4ccccc4c(=O)c3c21` is ___
39.9 µM (inactive)

What value of GI50 has been recorded for this entry: CC(C)=CCC/C(C)=C/COC(C)(C)C1=CCC(C)CC1.CC(C)=CCC/C(C)=C/COC1CC(C)CCC1=C(C)C (stereo not given)
> 100 µM (inactive)

I am curious: what GI50 value has been reported for O=C1CCC(N2C(=O)c3ccccc3C2=O)C(=O)N1 (stereo not given) [THALIDOMIDE] ?
> 100 µM (inactive)

* * *

Would you mind telling me the reported GI50 of each entry?
tested on: ACHN; test: NCI tumour cell line growth inhibition, 48 h
Calls of active or inactive are those of the source. No stated cut-off is given here; in the data, active = GI50 up to about 1.1 µM and inactive = higher.

Lab request: please report GI50 under test system ACHN for CCC1(C(=O)OC)CCc2c(OC)ccc(OC)c2C1=O (stereo not drawn)
> 100 µM (inactive)

GET /values?readout=GI50&system=ACHN&item= `C=CCOC(=O)[C@@H]1C[C@@H](OC(C)(C)C)CN1C(=O)[C@@H]1[C@H]2OC(C)(C)O[C@H]2CN1C(=O)OCC1c2ccccc2-c2ccccc21`
15.9 µM (inactive)

ACHN / GI50 / CC1=CC(=O)CC2(C)CC[C@@H]3C[C@]12OC3(C)C (stereo partly drawn) : value?
> 100 µM (inactive)

* * *

system: A498; experiment: NCI tumour cell line growth inhibition, 48 h
The source made the active and inactive calls. No stated cut-off is given here; in the data, active = GI50 up to about 1.1 µM and inactive = higher.
Consider the following molecules; for each one, report its GI50.

What does the data say about its GI50? Entry: COC(=O)C1(Cc2ccc3c(c2)CCC3)Cc2ccc3c(c2C1O)CCC3 (stereo not given)
11.7 µM (inactive)

What value of GI50 has been recorded for this entry: `COc1cc2cnc3c4cc(OC(C)C)c(OC)cc4ccc3c2cc1OC`
> 100 µM (inactive)

Given the molecule `CCOC(=O)/C(ON)=C(/CC/C(C(=O)OC)=C(\ON)C(=O)OCC)C(=O)OC` , what is its reported GI50?
> 100 µM (inactive)

Entry under review: `CSc1cc(Cl)c(C)cc1S(=O)(=O)NC(=O)NNc1ccccn1` . Reported GI50?
> 100 µM (inactive)

Given `Cc1cccc(N2C(=O)C(=O)C(c3nc4ccccc4s3)C(=O)C2=O)c1C` , state its recorded GI50.
> 100 µM (inactive)

Param item = N#Cc1cc([N+](=O)[O-])ccc1NC(=O)/C(=N\NC(=O)c1ccncc1)C(c1cnc2ccc([N+](=O)[O-])cc2n1)[N+](=O)[O-] (stereo not given) ; retrieve measured GI50.
8.49 µM (inactive)

State the recorded GI50 for this entry: `COC(=O)CCn1cnc2c(SC)ncnc21`
> 100 µM (inactive)

I have this molecule here, `Cn1ncc2ccc3[nH]c4ccccc4c(=O)c3c21` , and I need its recorded GI50.
22.4 µM (inactive)

Looking for the measured GI50 of `CCOP(=O)(OCC)[C@H](O)c1ccsc1` , can you help?
> 100 µM (inactive)

# query: GI50 of entry `COc1cc(Nc2nc3ccccc3nc2C(=O)O)cc(OC)c1OC`
35 µM (inactive)

* * *

tested on: MDA-MB-435; assay: NCI tumour cell line growth inhibition, 48 h
Calls of active or inactive are those of the source. Rule as the data show it: active = GI50 up to about 1.1 µM and inactive = higher.
Pick one and only one: active, inactive

Hi, sorry to bother you, what did the test record for `CCOC(=O)c1[nH]c(Br)c(-c2ccc(Br)cc2)c1Br` ?
active

Dear all, I need the recorded test outcome for `COC(=O)N1C[C@@]2(C=CC3(CC2)OCCO3)c2ccccc21` , thank you.
inactive

Assay result, entry `Cc1cc(CN2CCCCC2)c(O)c(CN2CCCCC2)c1` — outcome?
inactive

How was `COc1cc2nc(Cl)nc(NS(=O)(=O)c3cc4ccccc4s3)c2cc1OC` classified in this test?
inactive

Each compound tested received a call. Report the one for Cn1c2ccccc2c(=O)c2cccc(C(=O)NC(CS)C(=O)O)c21 (stereo not given) .
inactive

Which outcome was assigned to CC#CCCCC1(C)CCCNC1=S (stereo not given) in this test?
inactive

In this assay, the call recorded for OC(c1ccccc1)C(F)(F)c1nc2ccccc2o1 (stereo not given) was what?
inactive

Fill in: this test's call for CC1=CC(=O)CC2(C)CCC(C(C)CC(=O)CC(C)C)CC12 (stereo not given) is ___
inactive

So what was the verdict on CCn1c(O)c(C(=O)NC(C)c2ccc([N+](=O)[O-])cc2)c(=O)n(CC)c1=S (stereo not given) in this test?
inactive

What did this assay record as the result for CCC1c2[nH]c3ccccc3c2C[C@H]2C(=O)N3CCC[C@H]3C(=O)N12 (stereo not given in full) ?
inactive

Would you mind telling me which call this test gave CC(C)=CCC/C(C)=C/COC(C)(C)C1=CCC(C)CC1.CC(C)=CCC/C(C)=C/COC1CC(C)CCC1=C(C)C (stereo not given) ?
inactive

Assay result, entry `Cn1c(=O)n(-c2c3ccccc3c(Cl)c3ccccc23)n(C(C)(C)C)c1=O` — outcome?
inactive

How did this test come out for CC(C)SC1SCC2C(=O)N(C)C3(CC3C)C(=O)OCC(NC(=O)c3nc4ccccc4cc3O)C(=O)NC(C)C(=O)N(C)C1C(=O)N(C)C1(CC1C)C(=O)OCC(NC(=O)c1nc3ccccc3cc1O)C(=O)NC(C)C(=O)N2C (stereo not given) ?
active

Name the outcome recorded for `O=C1/C(=C/c2cccs2)N=C(c2ccccc2)N1c1nc2ccccc2s1` in the assay.
inactive

Each compound tested received a call. Report the one for `O=C1CCCC/C1=C\c1ccc([N+](=O)[O-])cc1` .
inactive

# lookup: test call for COC(=O)[C@]1(c2cc3ccccc3n2S(=O)(=O)c2ccccc2)CC2CN(C(C)=O)C1CC2=O (stereo not given in full)
inactive

Check the results log: what was the call for CN1CC2=C(N=C(S)NC2c2ccccc2Cl)/C(=C/c2ccccc2Cl)C1 (stereo not given) ?
inactive

Record lookup: outcome of this test for `Cc1nc2cc3ccccc3cc2[nH]c1=O` ?
inactive

State the result this test recorded for `COC(=O)c1cc(NC(=O)Cn2c3ccccc3c3ccccc32)cn1C` .
inactive

# outcome recorded in this test, key = `C=C1C(=O)O[C@H]2C/C(C)=C/CC[C@]3(C)CCC[C@](C)(CC[C@@H]12)O3`
inactive

* * *

tested on: UACC-62; assay: NCI tumour cell line growth inhibition, 48 h
Calls of active or inactive are those of the source. No stated cut-off is given here; in the data, active = GI50 up to about 1.1 µM and inactive = higher. *1 amine or outer side, *2 acyl side, *3 side chain or, on linkers, in order; H or OH if unused. Where a SMILES comes first, the peptide text is derived from it. [ ]: non-standard residue; d: D form. The star is where a group is joined. X31 = CC(=O)N(C)SCC(N[*:1])C(=O)[*:2]; Fmoc = O=C(OCC1c2ccccc2-c2ccccc21)*; For = O=C*
Give GI50 for every item shown.

Suppose we examine the compound `N=c1n(C(=O)N2CCCC2)c2cc(Cl)ccc2n1C1=NCCN1` ; what GI50 value has been reported?
> 100 µM (inactive)

Name the recorded GI50 for `CCOC(=O)N1CCN(c2nc(C)n(-c3ccccc3)c(=S)c2C#N)CC1` .
> 43.6 µM (inactive)

Which GI50 value belongs to Brc1cc(CCOC2CCCCO2)c(-c2sccc2CCOC2CCCCO2)s1 (stereo unspecified) ?
58.5 µM (inactive)

Quick one: GI50 for `N#C[C@@H](c1ccccn1)c1ncccc1[N+](=O)[O-]` ?
> 100 µM (inactive)

Fill blank: measured GI50 of the compound CC(=O)N(C)SCC(NC(=O)C(Cc1ccccc1)NC(=O)OCC1c2ccccc2-c2ccccc21)C(=O)NC(Cc1ccccc1)C(=O)NC(Cc1cn(C=O)c2ccccc12)C(=O)NC(CCCCNC(=O)OCC1c2ccccc2-c2ccccc21)C(=O)NC(C(=O)NC(CSN(C)C(C)=O)C(=O)NC(C(N)=O)C(C)O)C(C)O (stereo unspecified) (Fmoc-F[X31]FW(For)K(Fmoc)T[X31]T-NH2; configuration not given here) is ____.
58.6 µM (inactive)

So what's the measured GI50 for this one? CC(C)SC1SCC2C(=O)N(C)C3(CC3C)C(=O)OCC(NC(=O)c3nc4ccccc4cc3O)C(=O)NC(C)C(=O)N(C)C1C(=O)N(C)C1(CC1C)C(=O)OCC(NC(=O)c1nc3ccccc3cc1O)C(=O)NC(C)C(=O)N2C (stereo unspecified)
< 0.0001 µM (active)
